# target: ferroportin (Homo sapiens)
# experiment-description: FPN activity assay: ferroportin-GFP internalization/degradation in HEK293 cells
# Assay type: cell-based
# Design: expressed in transfected cells
# condition-details: ferroportin-GFP internalization/degradation, HEK293 cells; Table 6E; read-out: FPN IC50
# Method: Following internalization, the ferroporin protein is degraded. A retro inverse peptide is a peptide with a reversed sequence in all D amino acids. An example is that Hy-Glu-Thr-His-NH2 becomes Hy-DHis-DThr-DGlu-NH2. The EC50 of these reference compounds for ferroportin internalization/degradation was determined according to the FPN activity assay described above. These peptides served as control standards.
Positions of bridges follow the written chain, without caps; N, C: chain ends. Non-standard residues stand in square brackets, D forms with d. Residues, ends and D or L forms follow the SMILES beside them. Groups on a side chain read outwards from the residue. *: point of attachment. C18 diacid = O=C(O)CCCCCCCCCCCCCCCCC(=O)*; Dip = N[C@H](C(=O)O)C(c1ccccc1)c1ccccc1; NMeF = CN[C@@H](Cc1ccccc1)C(=O)O; β3hF = N[C@H](CC(=O)O)Cc1ccccc1; NMeK = CN[C@@H](CCCCN)C(=O)O; Tle = CC(C)(C)[C@H](N)C(=O)O; Isovaleryl = CC(C)CC(=O)*; Dap = NC[C@H](N)C(=O)O; AEEA = NCCOCCOCC(=O)O
# maps each entry to its DC50

[[record]]
molecule = "CC(C)CC(=O)N[C@@H](CCC(=O)O)C(=O)N[C@H](C(=O)N[C@@H](Cc1c[nH]cn1)C(=O)N[C@H](C(=O)N1CCC[C@H]1C(=O)N[C@H]1CSSC[C@@H](C(=O)N(C)[C@@H](CCCCNC(=O)COCCOCCNC(=O)COCCOCCNC(=O)[C@H](CN)NC(=O)CCCCCCCCCCCCCCCCC(=O)O)C(=O)N(C)[C@@H](Cc2ccccc2)C(=O)N[C@H](CCCCN)C(N)=O)NC1=O)C(c1ccccc1)c1ccccc1)[C@@H](C)O [compound 291] (Isovaleryl-ETH[Dip]PCC[NMeK]([AEEA-AEEA-Dap-C18 diacid])[NMeF][dK]-NH2; disulfide 6-7)"
attribute_measured = "DC50"
assay_result = "10 to 100 nM"


Next:
Q: State the measured DC50 (ferroportin (Homo sapiens)) of CC(C)CC(=O)N[C@@H](CCC(=O)O)C(=O)N[C@H](C(=O)N[C@@H](Cc1c[nH]cn1)C(=O)N[C@H](C(=O)N1CCC[C@H]1C(=O)N[C@H]1CSSC[C@@H](C(=O)N(C)[C@@H](CCCCNC(=O)COCCOCCNC(=O)COCCOCCNC(=O)[C@H](CN)NC(=O)CCCCCCCCCCCCCCCCC(=O)O)C(=O)N[C@H](CC(=O)N[C@H](C(N)=O)C(C)(C)C)Cc2ccccc2)NC1=O)C(c1ccccc1)c1ccccc1)[C@@H](C)O [compound 290] (Isovaleryl-ETH[Dip]PCC[NMeK]([AEEA-AEEA-Dap-C18 diacid])[β3hF][Tle]-NH2; disulfide 6-7)
A: 10 to 100 nM

* * *

# target: ferroportin (Homo sapiens, UniProt Q9NP59)
# Sequence (Q9NP59 whole entry): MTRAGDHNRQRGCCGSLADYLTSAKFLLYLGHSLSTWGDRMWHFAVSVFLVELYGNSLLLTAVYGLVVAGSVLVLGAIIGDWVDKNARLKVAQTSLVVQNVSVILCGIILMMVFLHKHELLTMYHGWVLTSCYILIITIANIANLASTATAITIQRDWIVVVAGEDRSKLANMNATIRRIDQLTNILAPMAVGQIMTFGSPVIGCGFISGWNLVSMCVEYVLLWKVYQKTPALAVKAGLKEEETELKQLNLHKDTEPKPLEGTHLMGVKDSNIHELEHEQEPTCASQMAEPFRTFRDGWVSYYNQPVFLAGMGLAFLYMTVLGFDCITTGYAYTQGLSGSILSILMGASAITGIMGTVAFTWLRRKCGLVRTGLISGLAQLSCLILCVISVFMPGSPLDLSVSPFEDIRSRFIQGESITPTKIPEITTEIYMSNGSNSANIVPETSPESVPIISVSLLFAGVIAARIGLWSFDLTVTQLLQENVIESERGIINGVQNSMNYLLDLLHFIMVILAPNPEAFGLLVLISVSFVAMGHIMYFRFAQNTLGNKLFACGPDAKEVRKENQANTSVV
# experiment-description: T47D cell-based ferroportin internalization assay in presence of mouse serum albumin (MSA)
# Design: a human breast carcinoma adherent cell line which endogenously expresses ferroportin; host or cells: T47D
# condition-details: Table 6E; T47D internalization assay with MSA
Positions of bridges follow the written chain, without caps; N, C: chain ends. Non-standard residues stand in square brackets, D forms with d. Residues, ends and D or L forms follow the SMILES beside them. Groups on a side chain read outwards from the residue. *: point of attachment. X1 = C[N+](C)(CCNC(=O)CCCCCCCCCCCCCCCCC(=O)O)CC(=O)*; Dip = N[C@H](C(=O)O)C(c1ccccc1)c1ccccc1; Pro(3R-OH) = O=C(O)[C@H]1NCC[C@H]1O; Palmitoyl = CCCCCCCCCCCCCCCC(=O)*; NMeT = CN[C@H](C(=O)O)[C@@H](C)O; NMeK = CN[C@@H](CCCCN)C(=O)O; Isovaleryl = CC(C)CC(=O)*; Ahx = NCCCCCC(=O)O
attribute-measured: IC50

[[record]]
compound = "COC(=O)CC[C@H](NC(=O)CC(C)C)C(=O)N1CC[C@@H](O)[C@H]1C(=O)N[C@@H](Cc1c[nH]cn1)C(=O)N[C@H](C(=O)N1CCC[C@H]1C(=O)N[C@H]1CSSC[C@@H](C(=O)N(C)[C@@H](CCCCNC(=O)CCCCCNC(=O)C[N+](C)(C)CCNC(=O)CCCCCCCCCCCCCCCCC(=O)O)C(=O)N[C@H](C(=O)N[C@H](CCCCN)C(N)=O)C(c2ccccc2)c2ccccc2)NC1=O)C(c1ccccc1)c1ccccc1 [compound 155] (Isovaleryl-E(OMe)[Pro(3R-OH)]H[Dip]PCC[NMeK]([Ahx-X1])[Dip][dK]-NH2; disulfide 6-7)"
target = "ferroportin (Homo sapiens, UniProt Q9NP59)"
assay_result = "10 to 100 nM"


Next:
Q: Give the reported value of IC50 for this record: CCCCCCCCCCCCCCCC(=O)NCCCCCC(=O)NCCCC[C@@H](C(=O)N[C@H](C(=O)N[C@H](CCCCN)C(N)=O)C(c1ccccc1)c1ccccc1)N(C)C(=O)[C@@H]1CSSC[C@H](NC(=O)[C@@H]2CCCN2C(=O)[C@@H](NC(=O)[C@H](Cc2cnc[nH]2)NC(=O)[C@H]([C@@H](C)O)N(C)C(=O)[C@H](CCC(=O)O)NC(=O)CC(C)C)C(c2ccccc2)c2ccccc2)C(=O)N1 [compound 173] (Isovaleryl-E[NMeT]H[Dip]PCC[NMeK]([Ahx-Palmitoyl])[Dip][dK]-NH2; disulfide 6-7)
A: 1 to 10 nM
